I'd appreciate it if you could supply IC50 (µg/mL), neutralization of pseudovirus values for the items below.
assayed_target: HIV-1 Env of isolate MGRM-G-009 (subtype G), on pseudovirus (HIV-1)
protocol_text: cell-based or functional assay

Reference set, count: 2
PGT-131 (antibody, V domains shown) VH: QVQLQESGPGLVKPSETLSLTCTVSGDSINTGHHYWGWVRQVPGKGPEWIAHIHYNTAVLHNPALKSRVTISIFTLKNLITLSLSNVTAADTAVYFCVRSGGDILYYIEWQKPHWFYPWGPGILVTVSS VL: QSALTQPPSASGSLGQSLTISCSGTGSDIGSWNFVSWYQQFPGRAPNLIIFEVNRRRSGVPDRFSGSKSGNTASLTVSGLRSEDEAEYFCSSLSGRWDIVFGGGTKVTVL | > 50 µg/mL
PGT-135 (antibody, V domains shown) VH: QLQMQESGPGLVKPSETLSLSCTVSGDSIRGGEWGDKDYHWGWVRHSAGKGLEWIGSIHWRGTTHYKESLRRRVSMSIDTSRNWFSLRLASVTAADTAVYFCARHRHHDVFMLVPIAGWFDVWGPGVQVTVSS VL: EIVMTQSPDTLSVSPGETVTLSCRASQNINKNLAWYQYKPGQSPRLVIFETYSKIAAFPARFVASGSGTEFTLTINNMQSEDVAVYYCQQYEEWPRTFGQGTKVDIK | > 50 µg/mL

Next item in the queue.
Prompt: If you can, please state the reported IC50 (µg/mL), neutralization of pseudovirus value of PGT-127 (antibody, V domains shown) VH: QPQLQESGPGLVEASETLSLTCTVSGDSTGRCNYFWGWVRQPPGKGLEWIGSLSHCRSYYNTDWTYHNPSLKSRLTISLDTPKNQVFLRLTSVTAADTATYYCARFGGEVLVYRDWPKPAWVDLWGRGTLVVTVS VL: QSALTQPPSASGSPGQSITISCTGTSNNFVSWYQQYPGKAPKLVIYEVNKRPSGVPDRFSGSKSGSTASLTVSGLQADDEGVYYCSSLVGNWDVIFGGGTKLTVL .
Completion: > 50 µg/mL
